# system.under.test: TRPML1 (Homo sapiens, UniProt Q9GZU1)
# Sequence (Q9GZU1 whole entry L15A/L16A/L577A/L578A, form open): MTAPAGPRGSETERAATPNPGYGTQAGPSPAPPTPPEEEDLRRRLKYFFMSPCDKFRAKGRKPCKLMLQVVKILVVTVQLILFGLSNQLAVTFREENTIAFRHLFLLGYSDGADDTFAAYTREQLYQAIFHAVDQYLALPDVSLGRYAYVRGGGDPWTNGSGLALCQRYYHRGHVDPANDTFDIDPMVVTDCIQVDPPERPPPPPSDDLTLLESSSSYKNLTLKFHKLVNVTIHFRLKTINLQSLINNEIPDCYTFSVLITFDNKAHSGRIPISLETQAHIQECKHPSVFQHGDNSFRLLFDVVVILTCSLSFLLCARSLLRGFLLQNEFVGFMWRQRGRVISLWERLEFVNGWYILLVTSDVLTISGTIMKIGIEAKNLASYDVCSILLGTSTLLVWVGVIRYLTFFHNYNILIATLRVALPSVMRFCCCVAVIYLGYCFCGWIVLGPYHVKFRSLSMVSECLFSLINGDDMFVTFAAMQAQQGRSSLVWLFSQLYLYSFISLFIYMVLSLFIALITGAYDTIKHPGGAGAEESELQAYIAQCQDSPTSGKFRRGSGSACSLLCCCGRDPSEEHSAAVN
# assay.text: Fluorescent TRPML1 assay (Fluo4-AM calcium fluorescence in doxycycline-induced HEK-293 Trex cells)
# Type: cell-based
# measurement.setup: fluorescent calcium assay
pEC50: −log10 of the molar value.
pEC50 values by entry

Field: example entries. Status: answers known.
- compound: "CCc1cn(-c2cc(C#N)ccn2)c2ncnc(N3CCN(C(=O)OC(C)(C)C)C[C@@H]3C)c12"
  pEC50: "> 7.00"
- compound: "C[C@@H]1CN(C(=O)OC(C)(C)C)CCN1c1ncnc2c1c(C1CC1)cn2-c1ccc(Cl)cc1"
  pEC50: "6.30 to 7.00"
- compound: "C[C@H]1CN(C(=O)OC(C)(C)C)CCN1c1ncnc2c1c(C1CC1(F)F)cn2-c1cc(C#N)ccn1 (stereo partly shown)"
  pEC50: "> 7.00"
- compound: "C[C@H]1CN(C(=O)OC(C)(C)C)CCN1c1ncnc2c1c(-c1cccnc1)cn2-c1ccc(F)c(Cl)c1"
  pEC50: "> 7.00"
- compound: "C[C@H]1CN(C(=O)OC(C)(C)C)CCN1c1ncnc2c1c(N1CCCC1)cn2C1CCCCC1"
  pEC50: "> 7.00"
- compound: "CCOC(=O)N1C[C@H](C)N(c2ncnc3c2c(-c2cnccn2)cn3-c2cccc(Cl)c2)C[C@H]1C"
  pEC50: "5.70 to 6.30"

Turning now to a further compound:
I'd like to know its pEC50. The compound in question is C[C@H]1CN(C(=O)OC(C)(C)C)CCN1c1ncnc2c1c(C(C)(C)O)cn2-c1cc(C#N)ccn1
> 7.00

* * *

# system.under.test: TRPML1 (Homo sapiens, UniProt Q9GZU1)
# assay.text: Fluorescent TRPML1 assay (Fluo4-AM calcium fluorescence in doxycycline-induced HEK-293 Trex cells)
# Format: cell-based
# measurement.setup: fluorescent calcium assay
parameter.measured: EC50

- smiles.input: "Cc1cncc(-n2cc(C3CC3)c3c(N4CCN(C(=O)OC(C)(C)C)CC4)ncnc32)c1"
  EC50: "100 to 500 nM"
- smiles.input: "COc1cncc(-n2cc(C3CC3)c3c(N4CCN(C(=O)OC(C)(C)C)C[C@@H]4C)ncnc32)c1"
  EC50: "100 to 500 nM"
- smiles.input: "C[C@H]1CN(C(=O)OC(C)(C)C)CCN1c1ncnc2c1c(C1COC1)cn2-c1cc(F)cc(F)c1"
  EC50: "500 to 2000 nM"

Moving on to the next molecule.
Looking for the measured EC50 of C[C@H]1CN(C(=O)OC(C)(C)C)CCN1c1ncnc2c1c(-n1cccn1)cn2-c1cccc(Cl)c1 , can you help?
100 to 500 nM

* * *

# system.under.test: TRPML1 (Homo sapiens)
# assay.text: Fluorescent TRPML1 assay (Fluo4-AM calcium fluorescence in doxycycline-induced HEK-293 Trex cells)
# Assay type: cell-based
pEC50: −log10 of the molar value.
pEC50 by entry:

- smiles.input: "C[C@@H]1CN(c2ncnc3c2c(-c2ccccc2F)cn3-c2cc(F)ccn2)[C@@H](C)CN1C(=O)OC1(C)CC1"
  value: "> 7.00"
- smiles.input: "CCc1cn(-c2cc(F)ccn2)c2ncnc(N3C[C@@H](C)N(C(=O)OC(C)(C)C)C[C@@H]3C)c12"
  value: "> 7.00"
- smiles.input: "Cc1cn(-c2cccc(F)c2)c2ncnc(N3CCN(C(=O)OC(C)(C)C)C[C@@H]3C)c12"
  value: "> 7.00"

Proceed to the following item.
Fill in the blank: the reported pEC50 of C[C@@H]1CN(c2ncnc3c2c(C2CC2)cn3-c2cccc(F)c2)[C@@H](C)CN1C(=O)OC1(C)CC1 is ____.
> 7.00

* * *

# system.under.test: TRPML1 (Homo sapiens, UniProt Q9GZU1)
# assay.text: Fluorescent TRPML1 assay (Fluo4-AM calcium fluorescence in doxycycline-induced HEK-293 Trex cells)
# Format: cell-based
# measurement.setup: fluorescent calcium assay
pEC50: −log10 of the molar value.
parameter.measured: pEC50

Look up pEC50 with TRPML1 (Homo sapiens, UniProt Q9GZU1) for this compound: C[C@@H]1CN(c2ncnc3c2c(C2CC2)cn3-c2cc(F)cc(Cl)c2)[C@@H](C)CN1C(=O)OC(C)(C)C
> 7.00

Which pEC50 is reported with TRPML1 (Homo sapiens, UniProt Q9GZU1) for this entry: CCOC(=O)N1C[C@H](C)N(c2ncnc3c2c(C2CC2)cn3-c2cccc(Cl)c2)C[C@H]1C ?
> 7.00

Recorded pEC50 for Cc1nccnc1-c1cn(-c2cc(F)cc(F)c2)c2ncnc(N3CCN(C(=O)OC(C)C)C[C@@H]3C)c12 with TRPML1 (Homo sapiens, UniProt Q9GZU1), please?
< 5.70

Requested read-out pEC50, target or system TRPML1 (Homo sapiens, UniProt Q9GZU1), entry C[C@H]1CN(C(=O)OC(C)(C)C)CCN1c1ncnc2c1c(N1CCC1)cn2-c1cccc(C#N)c1
> 7.00

// lookup pEC50 | system=TRPML1 (Homo sapiens, UniProt Q9GZU1) | key= C[C@H]1CN(C(=O)OC(C)(C)C)CCN1c1ncnc2c1c(N1CCCC1)cn2C12CCC(CC1)CC2
6.30 to 7.00

Item: C[C@@H]1CN(c2ncnc3c2c(-n2cccn2)cn3-c2cccc(Cl)c2)CCN1C(=O)OC(C)(C)C Test system: TRPML1 (Homo sapiens, UniProt Q9GZU1) Read-out: pEC50 Value: ?
> 7.00

Checklist item: pEC50 tested on TRPML1 (Homo sapiens, UniProt Q9GZU1), entry C[C@@H]1CN(c2ncnc3c2c(C2CC2)cn3-c2cncc(C(F)(F)F)c2)[C@@H](C)CN1C(=O)OC(C)(C)C , value?
6.30 to 7.00

* * *

# system.under.test: TRPML2 (Homo sapiens)
# Construct: expressed in transfected cells
# Sequence (Q8IZK6 whole entry): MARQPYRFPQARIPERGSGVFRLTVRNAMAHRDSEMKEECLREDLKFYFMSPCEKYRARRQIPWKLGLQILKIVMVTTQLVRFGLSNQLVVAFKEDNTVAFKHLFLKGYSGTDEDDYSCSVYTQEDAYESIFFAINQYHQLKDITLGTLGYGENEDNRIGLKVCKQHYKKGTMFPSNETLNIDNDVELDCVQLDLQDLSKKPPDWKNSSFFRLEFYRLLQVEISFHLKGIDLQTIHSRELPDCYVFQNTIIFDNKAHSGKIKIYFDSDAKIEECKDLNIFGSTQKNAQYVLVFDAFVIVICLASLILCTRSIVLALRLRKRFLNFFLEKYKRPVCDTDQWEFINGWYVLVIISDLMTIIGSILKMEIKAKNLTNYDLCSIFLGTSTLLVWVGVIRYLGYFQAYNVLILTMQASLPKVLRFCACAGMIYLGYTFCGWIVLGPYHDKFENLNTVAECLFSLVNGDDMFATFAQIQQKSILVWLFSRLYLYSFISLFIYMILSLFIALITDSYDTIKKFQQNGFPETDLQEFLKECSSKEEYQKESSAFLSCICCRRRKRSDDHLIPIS
# assay.text: Fluorescent TRPML2 assay (performed as for TRPML1, substituting the TRPML2 subtype)
# Format: cell-based
# reported EC50; entries follow

Would you please look over these solved cases?
- compound: "Cc1cn(-c2cncc(F)c2)c2ncnc(N3CCN(C(=O)OC(C)(C)C)C[C@@H]3C)c12 [Compound 689]"
  value: "0.1 to 0.5 µM"
- compound: "Cc1cn(-c2cc(F)ccn2)c2ncnc(N3CCN(C(=O)OC(C)(C)C)C[C@@H]3C)c12 [Compound 681]"
  value: "< 0.1 µM"
- compound: "Cc1cn(-c2cc(C#N)ccn2)c2ccnc(N3C[C@@H](C)N(C(=O)OC(C)(C)C)C[C@@H]3C)c12 [Compound 705]"
  value: "0.5 to 2 µM"

Quick check: EC50 of C[C@@H]1CN(c2ncnc3c2c(-c2ccccc2F)cn3-c2cncc(C#N)c2)[C@@H](C)CN1C(=O)OC(C)(C)C [Compound 650] ?
< 0.1 µM

Fill in the blank: the reported EC50 of C[C@@H]1CN(c2nccc3c2c(N2CCC2)cn3-c2cccc(F)c2)[C@@H](C)CN1C(=O)OC(C)(C)C [Compound 638] is ____.
0.1 to 0.5 µM

Quick one: EC50 for CC1CC1c1cn(-c2cccc(C#N)c2)c2ncnc(N3CCN(C(=O)OC(C)(C)C)C[C@@H]3C)c12 (stereo partly drawn) [Compound 616] ?
< 0.1 µM

* * *

# system.under.test: TRPML3 (Homo sapiens, UniProt Q8TDD5)
# Construct: expressed in transfected cells
# Sequence (Q8TDD5 1-553): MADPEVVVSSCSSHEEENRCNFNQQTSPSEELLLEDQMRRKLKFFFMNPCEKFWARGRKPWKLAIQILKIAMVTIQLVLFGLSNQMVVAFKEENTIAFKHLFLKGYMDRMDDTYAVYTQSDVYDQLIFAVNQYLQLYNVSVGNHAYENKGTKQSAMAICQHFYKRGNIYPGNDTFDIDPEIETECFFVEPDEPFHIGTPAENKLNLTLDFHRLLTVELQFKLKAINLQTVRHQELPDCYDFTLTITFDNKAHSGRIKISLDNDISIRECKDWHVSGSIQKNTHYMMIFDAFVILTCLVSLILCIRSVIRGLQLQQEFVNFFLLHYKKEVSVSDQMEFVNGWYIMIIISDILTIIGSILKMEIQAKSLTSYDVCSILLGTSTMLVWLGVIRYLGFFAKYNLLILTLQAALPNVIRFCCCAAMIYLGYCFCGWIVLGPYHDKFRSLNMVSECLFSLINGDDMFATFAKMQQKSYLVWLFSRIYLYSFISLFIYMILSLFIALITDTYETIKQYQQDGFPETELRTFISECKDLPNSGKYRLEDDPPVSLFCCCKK
# assay.text: Fluorescent TRPML3 assay (performed as for TRPML1, substituting the TRPML3 subtype)
# Assay type: cell-based
# measurement.setup: fluorescent calcium assay
parameter.measured: EC50

See these solved cases before continuing.
- molecule: "COc1cncc(-n2cc(-c3ccccc3F)c3c(N4CCN(C(=O)OC(C)(C)C)CC4)ncnc32)c1"
  parameter.measured: "EC50"
  value: "100 to 500 nM"
- molecule: "C[C@H]1CN(C(=O)OC(C)(C)C)CCN1c1ncnc2c1c(C1CC1)cn2C12CCC(CC1)CC2"
  parameter.measured: "EC50"
  value: "< 100 nM"
- molecule: "C[C@@H]1CN(c2ncnc3c2c(C2CC2)cn3-c2cccnc2)[C@@H](C)CN1C(=O)OC(C)(C)C"
  parameter.measured: "EC50"
  value: "500 to 2000 nM"
- molecule: "C[C@@H]1CN(c2ncnc3c2c(C2CC2)cn3-c2cc(C#N)ccn2)[C@@H](C)CN1C(=O)OC(C)(C)C"
  parameter.measured: "EC50"
  value: "< 100 nM"
- molecule: "C[C@@H]1CN(c2ncnc3c2c(-c2ccccc2)cn3-c2cccnc2)[C@@H](C)CN1C(=O)OC(C)(C)C"
  parameter.measured: "EC50"
  value: "< 100 nM"

Give its EC50 value. Item: C[C@H]1CN(C(=O)OC(C)(C)C)CCN1c1ncnc2c1c(N(C)C)cn2-c1cc(C#N)ccn1
< 100 nM

What value of EC50 has been recorded for this entry: Cc1cc(C#N)cc(-n2cc(C3CC3)c3c(N4CCN(C(=O)OC(C)(C)C)C[C@@H]4C)ncnc32)n1
< 100 nM

Consider the molecule CC(C)C(=O)N1CCN(c2nccc3c2c(-c2ccccc2F)cn3-c2cc(C#N)ccn2)[C@@H](C)C1 and give its measured EC50.
100 to 500 nM

Need EC50 of C[C@H]1CN(C(=O)OC(C)(C)C)CCN1c1ncnc2c1c(-c1nccnc1C#N)cn2-c1cccc(Cl)c1 , thanks.
100 to 500 nM

What EC50 value was documented for this molecule, C[C@H]1CN(C(=O)OC(C)(C)C)CCN1c1ncnc2c1c(-n1ccnc1)cn2-c1cccc(Cl)c1 ?
< 100 nM

What value of EC50 has been recorded for this entry: COc1cccc(-n2cc(C3CC3)c3c(N4CCN(C(=O)OC(C)(C)C)C[C@@H]4C)ncnc32)c1
100 to 500 nM

So what's the measured EC50 for this one? Cc1nccnc1-c1cn(-c2cc(F)cc(F)c2)c2ncnc(N3CCN(C(=O)OC(C)(C)C(F)(F)F)[C@H](C)C3)c12
100 to 500 nM

Consider the molecule C[C@@H]1CN(c2ncnc3c2c(C2CC2)cn3-c2ccc(F)c(Cl)c2)CCN1C(=O)OC(C)(C)C and give its measured EC50.
< 100 nM

Fill blank: measured EC50 of the molecule Cc1cncc(-n2cc(C3CC3)c3c(N4C[C@@H](C)N(C(=O)OC(C)(C)C)C[C@@H]4C)ncnc32)c1 is ____.
100 to 500 nM

Recorded EC50 of Cc1nccnc1-c1cn(-c2ccccc2)c2ncnc(N3C[C@@H](C)N(C(=O)OC(C)(C)C)C[C@@H]3C)c12 , please.
500 to 2000 nM

Which EC50 value is on record for Cc1c(F)cc(-n2cc(N3CCCC3)c3c(N4CCN(C(=O)OC(C)(C)C)C[C@@H]4C)ncnc32)cc1F ?
< 100 nM

Any idea what EC50 was measured for Cc1nccnc1-c1cn(-c2cc(F)cc(F)c2)c2ncnc(N3CCN(C(=O)OC(C)(C)C(F)(F)F)C[C@@H]3C)c12 ?
100 to 500 nM

For CC1CN(C(=O)OC(C)(C)C)CCN1c1nccc2c1c(-c1cnccn1)cn2-c1cccc(Cl)c1 (stereo not shown) , what is its reported EC50?
100 to 500 nM

Give the measured EC50 of CCOC(=O)N1CCN(c2ncnc3c2c(-c2ccccc2F)cn3-c2cncc(OC)c2)[C@@H](C)C1 .
500 to 2000 nM

# input molecule: C[C@H]1CN(C(=O)OC(C)(C)C)CCN1c1ncnc2c1c(N(C)C)cn2-c1cccc(Cl)c1 ; wanted: its EC50
< 100 nM

Endpoint output: EC50 of COc1cncc(-n2cc(-c3ccccc3F)c3c(N4C[C@@H](C)N(C(=O)OC(C)(C)C)C[C@@H]4C)ncnc32)c1 . Value?
< 100 nM

State the recorded EC50 for this entry: CCOC(=O)N1CCN(c2ncnc3c2c(-c2ccccn2)cn3-c2ccc(F)c(Cl)c2)[C@@H](C)C1
100 to 500 nM

Report EC50 for C[C@H]1CN(C(=O)OC(C)(C)C)CCN1c1ncnc2c1c(N1CCCC1)cn2-c1ncc(C#N)s1 please.
500 to 2000 nM

Record request: EC50 value, item C[C@H]1CN(C(=O)OC(C)(C)C(F)(F)F)CCN1c1ncnc2c1c(C1CC1)cn2-c1cc(C#N)ccn1
100 to 500 nM

What does the data say about its EC50? Entry: C[C@H]1CN(C(=O)OC(C)(C)C)CCN1c1ncnc2c1c(N1CCC1)cn2-c1cccc(Cl)c1
< 100 nM

Recorded EC50 of C[C@H]1CN(C(=O)OC(C)(C)C)CCN1c1ncnc2c1c(-c1cnccn1)cn2-c1cc(F)cc(F)c1 , please.
100 to 500 nM

// EC50 lookup, key: C[C@@H]1CN(c2ncnc3c2c(C(F)(F)F)cn3-c2cc(C#N)ccn2)[C@@H](C)CN1C(=O)OC(C)(C)C
< 100 nM

I have this molecule here, C[C@@H]1CN(c2ncnc3c2c(-c2ccccc2F)cn3-c2cnn(C)c2)[C@@H](C)CN1C(=O)OC(C)(C)C(F)(F)F , and I need its recorded EC50.
< 100 nM
